Test system: MS2 coat protein
Test: apparent Kd, MS2 coat protein; higher = weaker binding; RNA-MaP array; FMN 200 µM where present
Settings: ligand present: flavin mononucleotide; designed as: OFF switch for flavin mononucleotide
Assignment: determine reported apparent Kd for the given sequences.
Give your result in nM as a bare value.

Problem: For MS2 coat protein, provide apparent Kd of AAGGAUAGAGGAUAUACAUAGAUACAGAUUCAUGUAGACCUACAUGAGGAUCACCCAUGUAGAAGGCUAUCCUA please.
Solution: 113

Problem: For MS2 coat protein, provide apparent Kd of CGUUAUUCAGGAUAUGGCGUGUUAUACAUGAGGAUCACCCAUGUAGAUCCUGGUUAGGCCUCAGAAGGGAAUGUUC please.
Solution: 37.8

Problem: For MS2 coat protein, provide apparent Kd of CCUGGUUGGUAAGGAUAUCCUACACUGUUCUGACCCGUGCAAGCUACAUGAGGAUCACCCAUGUGGGAGAAGGUGCGUCAACGC please.
Solution: 11.7

Problem: For MS2 coat protein, provide apparent Kd of UAGAAGUCAGGAUAUCCUGCUCGUCACUUGCGUGAUGAGUAGGAGAAGGGACAUGAGGAUCACCCAUGUAAAGA please.
Solution: 53.4

Problem: For MS2 coat protein, provide apparent Kd of GAGGAGCAAGGAUAUACGAGGAUAUGGUAGGUUGGAGAGUGACAUGAGGAUCACCCAUGUAGAAGGUGCGAGGG please.
Solution: 55.9

Problem: For MS2 coat protein, provide apparent Kd of GCGUCACAAUUAGAACCGAUACGAACAUGAGGAUCACCCAUGUAGGAUAUGCUAGAAGUUGAGUUGCAGAAGGACAUUUAUCGC please.
Solution: 10.6

Problem: For MS2 coat protein, provide apparent Kd of AAAAUGUCAGGAUAUGCGAAGGCGUCUGAUAGACGAGGCUAGCAGAAGGGACAUGAGGAUCACCCAUGUAAAAA please.
Solution: 152

Problem: For MS2 coat protein, provide apparent Kd of CUCGGACAUGAGGAUCACCCAUGUGAGGAUAUGGCGCUAUCGUCAUUAGACGAUUGCGCCAGAAGGCACAAAUG please.
Solution: 268

Problem: For MS2 coat protein, provide apparent Kd of GUGUAGAUAGGAUAUGCGUGAGUCUAGCGAAGCUAGGCUCUACAUGAGGAUCACCCAUGUAGAAGGGUCUACAC please.
Solution: 18.1

Problem: For MS2 coat protein, provide apparent Kd of UGCGUGUUAGGAUAUGCCAGCGCUACCUAAGGUAGGCUGUGGUAGAAGGAACAUGAGGAUCACCCAUGUAGGAG please.
Solution: 483

Problem: For MS2 coat protein, provide apparent Kd of CAUUAACAUGAGGAUCACCCAUGUGAGGAUAUGAUAUUACUUGGACAGCUGUGGUCAAUCAGAAGGCACAUCUU please.
Solution: 32.9

Problem: For MS2 coat protein, provide apparent Kd of GUCUCAGCUGAGGAUAUUAUCUGGCUCGACCGAUAAGAAGGCAGUACAUGAGGAUCACCCAUGUGGUUCGUUCG please.
Solution: 84.9
